# Test system: 598228-144-R-J1-PDC complex spheroid viability;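 note: spheroids exposed to the agents for one week before reading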
# assay-method-text: Anticancer human tumor 598228-144-R-J1-PDC patient-derived serous endometrial adenocarcinoma cell line growth inhibition [GQUAD]; active = viability on the fitted dose curve at most 10% of control; inactive = the rest
# condition-details: second compound 1 µM; first compound 1 µM
Answer with one of the outcomes t for active, f for inactive

The examples below pair each entry with its known result.
CC1COCCN1c1cc(-c2ccnn2C)c2ccnc(-c3ccn[nH]3)c2n1 (stereo not given) + Cc1[nH]c2ccc(F)cc2c1-c1nc2c3cccnc3c3ncccc3c2[nH]1 = f
COc1ccc([C@@H](O)c2cc(-c3ncnc4cc(N5CCOCC5)ccc34)c(F)cc2Cl)nn1 + Cc1cnc(CNC(=O)c2c(=O)c3ccc(N4CCCN(C)CC4)nc3n3c2sc2ccccc23)cn1 = f
COc1cc(C2c3cc4c(cc3C(OC3OC5COC(C)OC5C(O)C3O)C3COC(=O)C23)OCO4)cc(OC)c1O (stereo not given) + Cc1[nH]c2ccc(F)cc2c1-c1nc2c3cccnc3c3ncccc3c2[nH]1 = f

Exam item: Dear colleague, could you share the recorded outcome for C#Cc1c(F)ccc2cc(O)cc(-c3ncc4c(N5CC6CCC(C5)N6)nc(OCC56CCCN5CC(F)C6)nc4c3F)c12 (stereo not given) + CN(C)c1ccc(Nc2c3ccc(NC(=O)CCN4CCCC4)cc3nc3cc(NC(=O)CCN4CCCC4)ccc23)cc1 when you have a moment?
Marked response: f

Exam item: Dear colleague, could you share the recorded outcome for O=C(NO)c1cnc(N2CCN(S(=O)(=O)c3ccc4ccccc4c3)CC2)nc1 + CN(C)c1ccc(Nc2c3ccc(NC(=O)CCN4CCCC4)cc3nc3cc(NC(=O)CCN4CCCC4)ccc23)cc1 when you have a moment?
Marked response: t

Exam item: Dear colleague, could you share the recorded outcome for C=CC(=O)N1CCN(c2nc(=O)n(-c3c(C)ccnc3C(C)C)c3nc(-c4c(O)cccc4F)c(F)cc23)C(C)C1 (stereo not given) + CN(C)c1ccc(Nc2c3ccc(NC(=O)CCN4CCCC4)cc3nc3cc(NC(=O)CCN4CCCC4)ccc23)cc1 when you have a moment?
Marked response: f

Exam item: Dear colleague, could you share the recorded outcome for COc1ccc([C@@H](O)c2cc(-c3ncnc4cc(N5CCOCC5)ccc34)c(F)cc2Cl)nn1 + CN(C)c1ccc(Nc2c3ccc(NC(=O)CCN4CCCC4)cc3nc3cc(NC(=O)CCN4CCCC4)ccc23)cc1 when you have a moment?
Marked response: f

Exam item: Dear colleague, could you share the recorded outcome for O=C(NO)c1cnc(N2CCN(S(=O)(=O)c3ccc4ccccc4c3)CC2)nc1 + Cc1cnc(CNC(=O)c2c(=O)c3ccc(N4CCCN(C)CC4)nc3n3c2sc2ccccc23)cn1 when you have a moment?
Marked response: t

Exam item: Dear colleague, could you share the recorded outcome for CC(C)n1c(=O)n(C)c2cnc3cc(F)c(-c4ccc(OCCCN5CCCCC5)nc4)cc3c21 + CN(C)c1ccc(Nc2c3ccc(NC(=O)CCN4CCCC4)cc3nc3cc(NC(=O)CCN4CCCC4)ccc23)cc1 when you have a moment?
Marked response: f

Exam item: Dear colleague, could you share the recorded outcome for Cc1cccc(N(C)C(=O)C2C(O)CCN2c2nc(C)cc(C(F)(F)F)c2C#N)c1 (stereo not given) + Cc1[nH]c2ccc(F)cc2c1-c1nc2c3cccnc3c3ncccc3c2[nH]1 when you have a moment?
Marked response: f

Exam item: Dear colleague, could you share the recorded outcome for CC1COCCN1c1cc(C2(S(C)(=N)=O)CC2)nc(-c2ccnc3[nH]ccc23)n1 (stereo not given) + CN(C)c1ccc(Nc2c3ccc(NC(=O)CCN4CCCC4)cc3nc3cc(NC(=O)CCN4CCCC4)ccc23)cc1 when you have a moment?
Marked response: f

Exam item: Dear colleague, could you share the recorded outcome for CC(=O)O[C@H]1C(=O)[C@@]2(C)[C@H]([C@H](OC(=O)c3ccccc3)[C@]3(O)C[C@H](OC(=O)[C@H](O)[C@@H](NC(=O)c4ccccc4)c4ccccc4)C(C)=C1C3(C)C)[C@]1(OC(C)=O)CO[C@@H]1C[C@@H]2O + Cc1[nH]c2ccc(F)cc2c1-c1nc2c3cccnc3c3ncccc3c2[nH]1 when you have a moment?
Marked response: f

Exam item: Dear colleague, could you share the recorded outcome for CC1COCCN1c1cc(C2(O)CC3CCC(C2)O3)c2cnn(-c3ccn[nH]3)c2n1 (stereo not given) + Cc1cnc(CNC(=O)c2c(=O)c3ccc(N4CCCN(C)CC4)nc3n3c2sc2ccccc23)cn1 when you have a moment?
Marked response: f

Exam item: Dear colleague, could you share the recorded outcome for COc1ncnc(C2CC2)c1-c1ncc2cnn(Cc3ccc(-c4nc(C(F)(F)F)cn4C(C)C)cc3)c2n1 + CN(C)c1ccc(Nc2c3ccc(NC(=O)CCN4CCCC4)cc3nc3cc(NC(=O)CCN4CCCC4)ccc23)cc1 when you have a moment?
Marked response: f

Exam item: Dear colleague, could you share the recorded outcome for COc1cccc2c1C(=O)c1c(O)c3c(c(O)c1C2=O)CC(O)(C(=O)CO)CC3OC1CC(N)C(O)C(C)O1 (stereo not given) + Cc1[nH]c2ccc(F)cc2c1-c1nc2c3cccnc3c3ncccc3c2[nH]1 when you have a moment?
Marked response: f
